Target: Monoglyceride lipase (Homo sapiens, UniProt Q99685, C242A)
Test: Inhibition of human MGL C242A mutant using [3H]2-oleoylglycerol substrate
measure_name: IC50 (µM)
A number alone suffices; assume µM.

Tell me the measured IC50 of CN1CCN(C(=S)SSC(=S)N2CCN(C)CC2)CC1 , please.
0.302

====

Molecular target: Monoglyceride lipase (Homo sapiens)
Sequence (Q99685 whole entry): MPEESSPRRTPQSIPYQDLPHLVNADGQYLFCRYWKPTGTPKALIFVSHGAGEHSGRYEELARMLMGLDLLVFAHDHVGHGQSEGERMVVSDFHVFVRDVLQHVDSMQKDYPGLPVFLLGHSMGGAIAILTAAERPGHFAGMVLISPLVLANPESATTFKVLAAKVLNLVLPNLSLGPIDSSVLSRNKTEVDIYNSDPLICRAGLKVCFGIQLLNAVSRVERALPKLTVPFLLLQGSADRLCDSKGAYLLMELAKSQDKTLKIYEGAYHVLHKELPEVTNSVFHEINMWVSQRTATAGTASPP
measure_name: IC50

[
  {
    "compound": "CCN(CC)C(=S)CSC(=S)N(CC)CC",
    "measure_name": "IC50",
    "measured_result": "19.1 µM"
  },
  {
    "compound": "CN(C)C(=S)SC(=S)N1CCOCC1",
    "measure_name": "IC50",
    "measured_result": "6.46 µM"
  },
  {
    "compound": "CN1CCN(C(=S)SCSC(=S)N2CCN(C)CC2)CC1",
    "measure_name": "IC50",
    "measured_result": "95.5 µM"
  }
]

Field: next compound
Tell me the measured IC50 of CCCCCCCCCCCCCCCCN(CC)C(=S)SSC(=S)N(CC)CCCCCCCCCCCCCC , please.
10.5 µM

====

Target: Fatty-acid amide hydrolase 1 (Homo sapiens)
Experiment: Inhibition of human recombinant FAAH-maltose binding protein
pIC50: −log10 of the molar value.
measure_name: pIC50

Known results for molecules:
[
  {
    "molecule": "S=C(SSC(=S)N1CCCc2ccccc21)N1CCCc2ccccc21",
    "measured_result": "< 3.00"
  },
  {
    "molecule": "C1CN(SSN2CCOCC2)CCO1 [DITHIODIMORPHOLINE]",
    "measured_result": "< 3.00"
  }
]

Field: next molecule
Tell me the measured pIC50 of S=C(SSC(=S)N1CCOCC1)N1CCOCC1 , please.
4.10

====

Species on record: Homo sapiens
Assay: Selectivity ratio for human MGL activity to human recombinant FAAH
measure_name: Selectivity ratio
Reply: number alone, nothing else.

[
  {
    "smiles_structure": "CCCCC/C=C\\C/C=C\\C/C=C\\C/C=C\\CCCC(=O)C(F)(F)F",
    "Selectivity ratio": 0.002
  },
  {
    "smiles_structure": "CN(C)C(=S)SSC(=S)N(C)C",
    "Selectivity ratio": 45
  },
  {
    "smiles_structure": "COc1nn(-c2ccc(NC(=O)OCc3ccccc3)c(C)c2)c(=O)o1",
    "Selectivity ratio": 3
  }
]

Tell me the measured Selectivity ratio of CCCCC/C=C\C/C=C\C/C=C\C/C=C\CCCCN1C(=O)CCC1=O , please.
1.95

Tell me the measured Selectivity ratio of O=C(Nc1cccc(-c2ccccc2)c1)OC1CCCCC1 , please.
0.57

====

Each entry below carries its recorded pIC50.
Molecular target: Monoglyceride lipase (Homo sapiens, UniProt Q99685)
Sequence (Q99685 whole entry): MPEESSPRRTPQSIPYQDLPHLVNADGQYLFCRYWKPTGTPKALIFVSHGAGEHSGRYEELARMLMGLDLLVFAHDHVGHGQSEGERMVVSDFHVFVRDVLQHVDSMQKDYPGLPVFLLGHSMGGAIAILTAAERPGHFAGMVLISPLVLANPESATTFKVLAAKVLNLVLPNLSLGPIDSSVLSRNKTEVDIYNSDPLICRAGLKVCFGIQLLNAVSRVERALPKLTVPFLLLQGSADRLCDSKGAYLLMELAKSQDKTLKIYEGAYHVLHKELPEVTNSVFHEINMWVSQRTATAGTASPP
Bear in mind: pIC50 is minus log10 of a mol/L concentration; give just that figure.

[
  {
    "smiles_structure": "S=C(SCSC(=S)N1CCOCC1)N1CCOCC1",
    "pIC50": 3.99
  },
  {
    "smiles_structure": "S=C(SSC(=S)N1CCN(C2CCCCC2)CC1)N1CCN(C2CCCCC2)CC1",
    "pIC50": 6.78
  },
  {
    "smiles_structure": "CCN(CC)C(=S)SSC(=S)N(CC)CC",
    "pIC50": 5.90
  }
]

Field: next molecule
Tell me the measured pIC50 of CCN(CC)C(=O)CSC(=S)N(CC)CC , please.
3.20

====

Target: Fatty-acid amide hydrolase 1 (Homo sapiens)
Sequence (O00519 whole entry): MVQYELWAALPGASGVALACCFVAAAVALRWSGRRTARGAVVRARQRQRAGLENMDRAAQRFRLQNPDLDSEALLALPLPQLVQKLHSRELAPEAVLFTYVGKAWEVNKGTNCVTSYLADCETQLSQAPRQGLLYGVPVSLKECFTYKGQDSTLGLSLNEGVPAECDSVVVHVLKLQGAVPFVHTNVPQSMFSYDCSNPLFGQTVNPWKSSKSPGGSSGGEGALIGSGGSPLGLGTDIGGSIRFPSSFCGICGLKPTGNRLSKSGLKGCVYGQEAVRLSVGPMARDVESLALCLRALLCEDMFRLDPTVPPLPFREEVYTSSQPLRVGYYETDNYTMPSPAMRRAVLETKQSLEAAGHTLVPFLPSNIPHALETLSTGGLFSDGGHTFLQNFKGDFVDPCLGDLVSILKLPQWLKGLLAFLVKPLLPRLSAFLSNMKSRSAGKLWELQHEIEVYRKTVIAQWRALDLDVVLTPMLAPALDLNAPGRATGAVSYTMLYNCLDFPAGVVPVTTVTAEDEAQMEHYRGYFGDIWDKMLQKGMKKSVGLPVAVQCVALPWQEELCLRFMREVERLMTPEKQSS
Assay: Inhibition of human recombinant FAAH-maltose binding protein
pIC50: −log10 of the molar value.
measure_name: pIC50

Known results for compounds:
[
  {
    "compound": "S=C(SSC(=S)N1CCSCC1)N1CCSCC1",
    "measured_result": 4.60
  },
  {
    "compound": "S=C(SSC(=S)N1CCN(Cc2ccccc2)CC1)N1CCN(Cc2ccccc2)CC1",
    "measured_result": 3.77
  },
  {
    "compound": "C1CCN(SSN2CCCCC2)CC1",
    "measured_result": "< 3.00"
  },
  {
    "compound": "CN(C)C(=S)SC(=S)N(C)C",
    "measured_result": "< 3.00"
  },
  {
    "compound": "CN(C(=S)SSC(=S)N(C)C1CCCCC1)C1CCCCC1",
    "measured_result": 5.32
  }
]

Tell me the measured pIC50 of CN(C)C(=S)SC(=S)N1CCOCC1 , please.
< 3.00

Tell me the measured pIC50 of CCCCC/C=C\C/C=C\C/C=C\C/C=C\CCCC(=O)C(F)(F)F [ARACHIDONYL TRIFLUOROMETHYLKETONE] , please.
7.91

Tell me the measured pIC50 of CN(C(=S)SSC(=S)N(C)c1ccccc1)c1ccccc1 , please.
4.47

Tell me the measured pIC50 of COc1nn(-c2ccc(NC(=O)OCc3ccccc3)c(C)c2)c(=O)o1 , please.
7.11

Tell me the measured pIC50 of CCN(CC)C(=S)SC [METHYLDIETHYL CARBAMODITHIOATE] , please.
< 3.00

Tell me the measured pIC50 of S=C(SSC(=S)N1CCc2ccccc2C1)N1CCc2ccccc2C1 , please.
< 3.00

Tell me the measured pIC50 of S=C(SSC(=S)N1CCCCCC1)N1CCCCCC1 , please.
< 3.00

Tell me the measured pIC50 of S=C(CSC(=S)N1CCOCC1)N1CCOCC1 , please.
< 3.00

Tell me the measured pIC50 of CSC(=S)N1CCOCC1 , please.
< 3.00

Tell me the measured pIC50 of CN(Cc1ccccc1)C(=S)SSC(=S)N(C)Cc1ccccc1 , please.
< 3.00

Tell me the measured pIC50 of CC1CCN(C(=S)SSC(=S)N2CCC(C)CC2)CC1 , please.
< 3.00

Tell me the measured pIC50 of CCN(CC)C(=S)CSC(=S)N(CC)CC , please.
< 3.00

Tell me the measured pIC50 of CCCCCCCCCCCCCCCCN(CC)C(=S)SSC(=S)N(CC)CCCCCCCCCCCCCC , please.
< 3.00

Tell me the measured pIC50 of CCN(CC)C(=O)CSC(=S)N(CC)CC , please.
< 3.00

Tell me the measured pIC50 of CC1CCCC(C)N1C(=S)SSC(=S)N1C(C)CCCC1C (stereo unspecified) , please.
< 3.00

Tell me the measured pIC50 of CCN(CC)C(=S)SSC(=S)N(CC)CC , please.
3.44

src = ChEMBL document CHEMBL1154683
